- experiment.summary: physchem
- test.context: 1:1 MeOH/H2O solution
readout.name: degraded at 168 h (%)
A number alone suffices; assume %.

-- ask Query (compound): CC(C)(C)C[C@@H]1N[C@@H](C(=O)N[C@H]2C[C@@](C)(O)C2)[C@H](c2cccc(Cl)c2F)[C@]12C(=O)Nc1cc(Cl)ccc12 ; field requested: degraded at 168 h
-- reply 2

* * *

Measured pIC50, listed per entry for reference.
- Tested on: SJSA-1
- experiment.summary: cells
- test.context: Homo sapiens
Remember the convention: pIC50 equals -log10 of concentration in molar.

{"compound.structure.string": "O=C(N[C@H]1CC[C@H](O)CC1)[C@@H]1NC2(CCCCC2)[C@@]2(C(=O)Nc3cc(Cl)ccc32)[C@H]1c1cccc(Cl)c1F", "readout.name": "pIC50", "value.reported": 6.72}
{"compound.structure.string": "CCC1(CC)N[C@@H](C(=O)N[C@H]2CC[C@H](O)CC2)[C@H](c2cccc(Cl)c2F)[C@]12C(=O)Nc1cc(Cl)ccc12", "readout.name": "pIC50", "value.reported": 5.27}
{"compound.structure.string": "O=C(N[C@H]1CC[C@H](O)CC1)[C@@H]1NC2(CCC2)[C@@]2(C(=O)Nc3cc(Cl)ccc32)[C@H]1c1cccc(Cl)c1F", "readout.name": "pIC50", "value.reported": 5.80}

-- ask Query (molecule): C[C@]1(O)C[C@@H](NC(=O)[C@@H]2NC3(CCC3)[C@]3(C(=O)Nc4cc(Cl)ccc43)[C@H]2c2cccc(Cl)c2F)C1 ; field requested: pIC50
-- reply 5.84

-- ask Query (molecule): O=C(N[C@H]1CC[C@H](O)CC1)[C@@H]1NC2(CCC2)[C@]2(C(=O)Nc3cc(Cl)ccc32)[C@H]1c1cccc(Cl)c1F ; field requested: pIC50
-- reply 5.70

-- ask Query (molecule): O=C(N[C@H]1CC[C@H](O)CC1)[C@@H]1NC2(CCCC2)[C@@]2(C(=O)Nc3cc(Cl)ccc32)[C@H]1c1cccc(Cl)c1F ; field requested: pIC50
-- reply 6.19

-- ask Query (molecule): C[C@]1(O)C[C@@H](NC(=O)[C@@H]2NC3(CCC3)[C@@]3(C(=O)Nc4cc(Cl)ccc43)[C@H]2c2cccc(Cl)c2F)C1 ; field requested: pIC50
-- reply 5.77

-- ask Query (molecule): O=C(NCCN1CCOCC1)[C@@H]1NC2(CCC2)[C@]2(C(=O)Nc3cc(Cl)ccc32)[C@H]1c1cccc(Cl)c1F ; field requested: pIC50
-- reply 5.78

-- ask Query (molecule): CC1(C)N[C@@H](C(=O)N[C@H]2CC[C@H](O)CC2)[C@H](c2cccc(Cl)c2F)[C@]12C(=O)Nc1cc(Cl)ccc12 ; field requested: pIC50
-- reply 5.54

-- ask Query (molecule): O=C(NCC[C@H](O)CO)[C@@H]1NC2(CCC2)[C@]2(C(=O)Nc3cc(Cl)ccc32)[C@H]1c1cccc(Cl)c1F ; field requested: pIC50
-- reply 5.78

-- ask Query (molecule): O=C(NCCN1CCOCC1)[C@@H]1NC2(CCC2)[C@@]2(C(=O)Nc3cc(Cl)ccc32)[C@H]1c1cccc(Cl)c1F ; field requested: pIC50
-- reply 5.64

* * *

- System: SJSA-1
- experiment.summary: cells
- test.context: Homo sapiens
Measured IC50, listed per entry for reference.

Some molecules with known IC50 results, for comparison:
{"compound.structure.string": "CCC1(CC)N[C@@H](C(=O)N[C@H]2C[C@@](C)(O)C2)[C@H](c2cccc(Cl)c2F)[C@]12C(=O)Nc1cc(Cl)ccc12", "IC50": "> 10 µM"}
{"compound.structure.string": "CCC1(CC)N[C@@H](C(=O)NCCN2CCOCC2)[C@H](c2cccc(Cl)c2F)[C@]12C(=O)Nc1cc(Cl)ccc12", "IC50": "> 10 µM"}

-- ask Query (molecule): CCC1(CC)N[C@@H](C(=O)NCC[C@H](O)CO)[C@H](c2cccc(Cl)c2F)[C@]12C(=O)Nc1cc(Cl)ccc12 ; field requested: IC50
-- reply > 10 µM
